method summary: Human HepG2 cell viability assay in 384 well format
Format: toxicity, cell-based
Set-up: dose 125 nL, time 70.5 hour; concentration not given beside the values
run parameters: HepG2 cells, read-out: Inhibition
Assign cytotoxicity at 70.5 h to each entry below.
One number for each entry, in %.

CN1CCOC(CNCc2cccc(OC(F)(F)F)c2)C1 (stereo unspecified)	-11.5
CC(C)(C)Oc1ccc(C(=O)N2CCOCC2c2ncon2)cc1 (stereo unspecified)	-0.751
O=C(C1CCOCC1)N1C[C@H]2CCC[C@@]2(COc2cccnc2)C1	-1.29

Batch request: cytotoxicity at 70.5 h for each of the following molecules.
1. COc1cccc(-c2ccnc(C3CCNCC3)c2)c1
2. CC(C)Cc1nc(CN2CCC3(CCCO3)CCC2=O)no1 (stereo unspecified)
3. CO[C@H]1CCN(c2ncccn2)[C@H]1Cc1ccccc1

Result string:
1. 7.37
2. 0.922
3. -6.47

====

Assign cytotoxicity at 70.5 h to each entry below.
method summary: Human HepG2 cell viability assay in 384 well format
Type: toxicity, cell-based
Parameters: dose 125 nL, time 70.5 hour; concentration not given beside the values
run parameters: HepG2 cells, read-out: Inhibition
Numbers only, in %.

Examples with answers:
CC/C=C(/C)C(=O)NCc1ccc(OC)nc1	-13.3
O=C(NC[C@H]1OC[C@@H](NC2CCC(F)(F)CC2)[C@@H]1O)Nc1ccccc1	0.362
CN(C)C(=O)N1C[C@@H]2CC[C@H](C1)N(S(=O)(=O)c1cccnc1)C2	-9.57

Batch request: cytotoxicity at 70.5 h for each of the following compounds.
1. COCCN1CCC12CCN(C(=O)c1ccc3[nH]ccc3c1)C2 (stereo unspecified)
2. CN(C)C(=O)CCCS(=O)(=O)Cc1cc(Cl)c2c(c1)OCO2

Result string:
-7.37
-2.84

====

method summary: Human HepG2 cell viability assay in 384 well format
Format: toxicity, cell-based
Design: dose 125 nL, time 70.5 hour; concentration not given beside the values
run parameters: HepG2 cells, read-out: Inhibition
Assign cytotoxicity at 70.5 h to each entry below.
Answers are plain numbers, in %.

Examples with answers:
CCNC(=O)N1CCC2(CC1)CCn1c(-c3cccc(OC)c3)cnc12	-6.74
OC[C@H]1CN(Cc2c(Cl)cncc2Cl)C[C@H]1CN1CCCC1	-9.31
CCn1nc(C)c2c1cnn2CC(=O)NC(C)c1cccc(OC)c1 (stereo not drawn)	-15.4
Cc1nc(C(=O)N2CCCC(c3nc(C(C)C)cs3)C2)c[nH]1 (stereo not drawn)	12.6
N#Cc1cccc(CN2CC[C@@H]3[C@@H]2CC(=O)N3Cc2cccnc2)c1	-18.9

Batch request: cytotoxicity at 70.5 h for each of the following molecules.
1. O=C(CN1CCOC(Cn2cccn2)C1)NCCc1ccc(F)cc1 (stereo not drawn)
2. Cn1ncc2c(=O)[nH]c(N3CCCC3c3cccc(Cl)c3)nc21 (stereo not drawn)
3. CC(C(=O)N(C)C)N1CCc2onc(-c3cccc(F)c3)c2C1 (stereo not drawn)
4. COCCn1cnc2ccc(NC(=O)c3c(C)noc3C)cc2c1=O
5. CCN1CC(C(=O)NCc2ccccc2-n2cccn2)CC1=O (stereo not drawn)
6. Cc1nc(CN2CCN(C(C)c3nc(C4CC4)no3)CC2)no1 (stereo not drawn)
7. O=C(c1cccc(F)c1)N1CC[C@H]2[C@H]1CCN2CC1CCOCC1
8. Cc1cnc(NC(=O)c2cccc(CN(C)Cc3ncccc3C)c2)s1

Result string:
1: -13.9; 2: -1.55; 3: -5.12; 4: 30.3; 5: -10.2; 6: -4.1; 7: -6.77; 8: 8.51

====

method summary: Human HepG2 cell viability assay in 384 well format
Assay type: toxicity, cell-based
Set-up: dose 125 nL, time 70.5 hour; concentration not given beside the values
run parameters: HepG2 cells, read-out: Inhibition
Assign cytotoxicity at 70.5 h to each entry below.
Numbers only, in %.

Batch request: cytotoxicity at 70.5 h for each of the following compounds.
1. CC(OCC1CC1)C(=O)Nc1cccc(C(=O)Nc2ccncc2)c1 (stereo unspecified)
2. CCn1nc2c(cc1=O)CN(CC(=O)Nc1nncs1)CC2
3. COc1cc(OC)cc(C2NC(=O)CN2Cc2ccc(Br)cc2)c1 (stereo unspecified)
4. Cc1ccc2cc(C(=O)NCCN3CCS(=O)(=O)CC3)c(C)nc2c1
5. O=C(c1ccoc1)N1CCOC2(COCCN(c3ncccn3)C2)C1 (stereo unspecified)
6. CC(=O)N1CCCC1c1cc(N2CCN(CC3CC3)CC2)cc(C)n1 (stereo unspecified)
7. COc1ccc(C(=O)N2CC(=O)N(C3CCC3)CC(O)C2)c(OC)c1 (stereo unspecified)

Result string:
[-10.9, -10.2, -8.73, -15.9, -7.67, -1.76, -1.09]

Batch request: cytotoxicity at 70.5 h for each of the following compounds.
1. Cn1cc(-c2nnn3c2COC(CNCc2ccncc2)C3)cn1 (stereo unspecified)
2. Cc1occc1C(=O)N1CCO[C@H]2[C@H](OCc3ccccn3)CC[C@@H]21

Result string:
1: -2.68; 2: -7.78

Batch request: cytotoxicity at 70.5 h for each of the following compounds.
1. Cc1cnc(C)c(N2CCCC(CC3CC3)(C(=O)O)C2)n1 (stereo unspecified)
2. CCc1nccc(CN2CCCC(CNC(=O)c3occc3C)C2)n1 (stereo unspecified)

Result string:
1: -4.19; 2: -10.1

====

Assign cytotoxicity at 70.5 h to each entry below.
method summary: Human HepG2 cell viability assay in 384 well format
Type: toxicity, cell-based
Parameters: dose 125 nL, time 70.5 hour; concentration not given beside the values
run parameters: HepG2 cells, read-out: Inhibition
Answers are plain numbers, in %.

Examples with answers:
CSCCC(O)C(=O)N1CCCN(Cc2cccnc2)CC1 (stereo unspecified)	-9.6
Cc1cc(C[C@@H]2CCC[C@H]2NCc2cc(F)ccc2F)on1	-1.78
COc1ccc(CNC(C)c2ccc(Cl)c(Cl)c2)c(OC)c1OC (stereo unspecified)	5.68
CCc1ccc(CN2C[C@H](OCC(=O)N(C)C)[C@H]3COC[C@H]32)o1	-0.34
CCc1ncc(CN[C@@H]2CCCN(C(C)=O)[C@H]2c2ccc(C)s2)cn1	-6.59

Query string: Which cytotoxicity at 70.5 h is listed for Cc1nc(CCCNC(=O)C2CC(=O)N(C3CC3)C2)sc1C (stereo unspecified) ?
Result string: 3.65

====

method summary: Human HepG2 cell viability assay in 384 well format
Format: toxicity, cell-based
Set-up: dose 125 nL, time 70.5 hour; concentration not given beside the values
run parameters: HepG2 cells, read-out: Inhibition
Assign cytotoxicity at 70.5 h to each entry below.
Numbers only, in %.

Examples with answers:
COCc1ccc(C(=O)N2CCOCC2c2ccc(C)o2)cc1 (stereo not given)	-0.476
Cc1ccc([C@]2(O)CC[C@H]3CN(Cc4cc(C)c(O)c(C)c4)C[C@H]32)nc1	30.6
O=C(NCc1cccnc1)c1nc2c(s1)CCCN2C(=O)C1CC1	-3.72

Batch request: cytotoxicity at 70.5 h for each of the following compounds.
1. Cc1ccc(C2(O)CCN(C(=O)CCn3c(C)cccc3=O)CC2)nc1
2. Cc1cnn(C2CCCN(C(=O)c3cn(-c4ccccc4)nc3C)C2)c1 (stereo not given)

Result string:
27.8
-6.2

====

Assign cytotoxicity at 70.5 h to each entry below.
method summary: Human HepG2 cell viability assay in 384 well format
Type: toxicity, cell-based
Parameters: dose 125 nL, time 70.5 hour; concentration not given beside the values
run parameters: HepG2 cells, read-out: Inhibition
Answers are plain numbers, in %.

Examples with answers:
COc1cc(CN2CCCCCC2c2cccs2)cc(OC)c1OC (configuration not stated)	-9.84
N#Cc1cccc(S(=O)(=O)NC(=O)CCOCC(F)(F)F)c1	-3.71
CN(CCc1nccs1)C(=O)CC1(O)CCCCC1	-5.26

Batch request: cytotoxicity at 70.5 h for each of the following compounds.
1. COCC1Cn2nnc(-c3cnn(C)c3)c2CN1Cc1ccc(C)o1 (configuration not stated)
2. CN(C(=O)c1ccc[nH]1)C1CCC(NC(=O)OC(C)(C)C)CC1 (configuration not stated)
3. COc1c(CNCc2ccc(C(=O)N(C)C(C)C)cc2)c(C)nn1C
4. CC(NS(C)(=O)=O)C(=O)N(C)Cc1cnn(-c2ccc(F)cc2)c1 (configuration not stated)
5. CCn1ccnc1CN1CCN(Cc2ccccn2)CC1C (configuration not stated)
6. CCN(CC)C1CCN(C(=O)c2cc(CC(C)C)nn2CC)C1 (configuration not stated)
7. CCOc1ncccc1C(=O)N(C)C1CCN(c2ccccn2)CC1
8. CC(=O)N[C@@H]1Cc2ccccc2[C@H]1Nc1ccncn1

Result string:
-12.2
-17.5
34.2
3.12
9.97
3.49
2.78
-5.99

Query string: Which cytotoxicity at 70.5 h is listed for Cc1ccn(Cc2nc(CC(C)C)no2)c(=O)c1 ?
Result string: -6.72
